# experiment-description: Tissue distribution in C57BL/6 male mice
# Type: in vivo, C57BL/6 mice
# applied-conditions: male, C57BL/6, mouse, liver; mice, oral 10 mg/kg, 0.5 hrs; read-out: Liver concentration
readout: concentration at 0.5 h (ng/g)
Give the value, in units of ng/g, as a plain number.

INPUT: # get_value(readout='concentration at 0.5 h', item= CC(C)Oc1nc(NC(=O)CSCC(=O)O)c(Cl)cc1Cl )
OUTPUT: 3890

* * *

The following molecules each carry a recorded Kd for FABP4 (Homo sapiens (Human), UniProt P15090).

INSERT INTO measurements (compound_structure, recorded_measurement) VALUES
  ('CC(C)Oc1nc(NC(=O)CSCC(=O)O)c(Cl)cc1C(F)(F)F', '18 nM'),
  ('CC(C)Oc1nc(NC(=O)CSCC(=O)O)c(Cl)cc1Cl', '18 nM'),
  ('CC(C)Oc1nc(NC(=O)CSC(C)(C)C(=O)O)c(Cl)cc1Cl', '96 nM');

INPUT: # get_value(readout='Kd', item= CC(C)Oc1nc(NC(=O)COCC(=O)O)c(Cl)cc1Cl )
OUTPUT: 79 nM

* * *

# experiment-description: Tissue distribution in C57BL/6 male mice
# Format: in vivo, C57BL/6 mice
# applied-conditions: male, C57BL/6, mouse, plasma; mice, oral 10 mg/kg, 2.0 hrs; read-out: Plasma concentration
readout: concentration at 2 h (ng/mL)
Give the value, in units of ng/mL, as a plain number.

INPUT: # get_value(readout='concentration at 2 h', item= CC(C)Oc1nc(NC(=O)CSCC(=O)O)c(Cl)cc1Cl )
OUTPUT: 236

* * *

# Test system: OVCAR8 cells
# experiment-description: Proliferation assay (Incucyte confluency), OVCAR8
# Assay type: cell-based
# applied-conditions: Homo sapiens, OVCAR-8, 96 h, 4 days, read-out: IC50, inhibition of OVCAR8 proliferation
readout: pIC50
// pIC50 is dimensionless: -log10 of concentration (M)

INSERT INTO assay_data (compound_structure, target_or_system, recorded_measurement) VALUES
  ('CC(C)Oc1nc(NC(=O)CSCC(=O)O)c(Cl)cc1Cl', 'OVCAR8 cells', 6.18);

Continue with the next compound.
INPUT: Lookup: pIC50 / OVCAR8 cells / CC(C)Oc1nc(NC(=O)CSCC(=O)O)c(Cl)cc1C(F)(F)F
OUTPUT: 6.15

* * *

# experiment-description: Single dose IV and PO PK study in C57BL/6 mice
# Assay type: in vivo
# applied-conditions: mouse, plasma; male C57BL/6 mice, intravenous 1 mg/kg
readout: clearance (mL/min/kg)
Give the value, in units of mL/min/kg, as a plain number.

INPUT: # get_value(readout='clearance', item= CC(C)Oc1nc(NC(=O)CSCC(=O)O)c(Cl)cc1Cl [PD152] )
OUTPUT: 16.1

INPUT: // next record CC(C)Oc1nc(NC(=O)CSCC(=O)O)c(Cl)cc1C(F)(F)F [PD151]
OUTPUT: 5.3

* * *

# experiment-description: Tissue distribution in C57BL/6 male mice
# Type: in vivo, C57BL/6 mice
# applied-conditions: male, C57BL/6, mouse, skeletal muscle; mice, oral 10 mg/kg, 0.5 hrs; read-out: Skeletal muscle concentration
readout: concentration at 0.5 h (ng/g)
Give the value, in units of ng/g, as a plain number.

INPUT: # get_value(readout='concentration at 0.5 h', item= CC(C)Oc1nc(NC(=O)CSCC(=O)O)c(Cl)cc1Cl )
OUTPUT: 139

* * *

# experiment-description: Tissue distribution in C57BL/6 male mice
# Assay type: in vivo, C57BL/6 mice
# applied-conditions: male, C57BL/6, mouse, skeletal muscle; mice, oral 10 mg/kg, 4.0 hrs; read-out: Skeletal muscle concentration
readout: concentration at 4 h
Field: value (include unit after the number)

INPUT: # get_value(readout='concentration at 4 h', item= CC(C)Oc1nc(NC(=O)CSCC(=O)O)c(Cl)cc1Cl )
OUTPUT: 14 ng/g

* * *

# target-or-system: FABP7 (Homo sapiens (Human), UniProt O15540)
# Sequence (O15540 whole entry, species assumed): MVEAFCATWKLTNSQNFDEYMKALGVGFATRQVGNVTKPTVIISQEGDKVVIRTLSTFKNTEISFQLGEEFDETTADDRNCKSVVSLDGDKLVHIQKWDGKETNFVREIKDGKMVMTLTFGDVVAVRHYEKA
readout: pKd
// pKd is dimensionless: -log10 of concentration (M)

INPUT: # get_value(readout='pKd', item= CC(C)Oc1nc(NC(=O)CSCC(=O)O)c(Cl)cc1Cl )
OUTPUT: 6.00

* * *

# experiment-description: Tissue distribution in C57BL/6 male mice
# Assay type: in vivo, C57BL/6 mice
# applied-conditions: male, C57BL/6, mouse; Skeletal Muscle, mice, oral 10 mg/kg; read-out: Tissue/Plasma ratio (Kp)
readout: Kp

INPUT: # get_value(readout='Kp', item= CC(C)Oc1nc(NC(=O)CSCC(=O)O)c(Cl)cc1Cl )
OUTPUT: 0.05

* * *

# experiment-description: Tissue distribution in C57BL/6 male mice
# Assay type: in vivo, C57BL/6 mice
# applied-conditions: male, C57BL/6, mouse, liver; mice, oral 10 mg/kg, 2.0 hrs; read-out: Liver concentration
readout: concentration at 2 h (ng/g)
Give the value, in units of ng/g, as a plain number.

INPUT: # get_value(readout='concentration at 2 h', item= CC(C)Oc1nc(NC(=O)CSCC(=O)O)c(Cl)cc1Cl [PD152] )
OUTPUT: 419

* * *

# experiment-description: Tissue distribution in C57BL/6 male mice
# Format: in vivo, C57BL/6 mice
# applied-conditions: male, C57BL/6, mouse, white adipose tissue; mice, oral 10 mg/kg, 4.0 hrs; read-out: Adipose tissue concentration
readout: concentration at 4 h
Field: value (include unit after the number)

INPUT: # get_value(readout='concentration at 4 h', item= CC(C)Oc1nc(NC(=O)CSCC(=O)O)c(Cl)cc1Cl )
OUTPUT: 520 ng/g

* * *

# experiment-description: Tissue distribution in C57BL/6 male mice
# Assay type: in vivo, C57BL/6 mice
# applied-conditions: male, C57BL/6, mouse, skeletal muscle; mice, oral 10 mg/kg, 8 hrs; read-out: Skeletal muscle concentration
readout: concentration at 8 h (ng/g)
Give the value, in units of ng/g, as a plain number.

INPUT: # get_value(readout='concentration at 8 h', item= CC(C)Oc1nc(NC(=O)CSCC(=O)O)c(Cl)cc1Cl )
OUTPUT: 21.1

* * *

# experiment-description: Tissue distribution in C57BL/6 male mice
# Type: in vivo, C57BL/6 mice
# applied-conditions: male, C57BL/6, mouse, pancreas; mice, oral 10 mg/kg, 0.5 hrs; read-out: Pancreas concentration
readout: concentration at 0.5 h

INPUT: # get_value(readout='concentration at 0.5 h', item= CC(C)Oc1nc(NC(=O)CSCC(=O)O)c(Cl)cc1Cl )
OUTPUT: 215 ng/g

* * *

# experiment-description: Tissue distribution in C57BL/6 male mice
# Format: in vivo, C57BL/6 mice
# applied-conditions: male, C57BL/6, mouse, liver; mice, oral 10 mg/kg, 4.0 hrs; read-out: Liver concentration
readout: concentration at 4 h

INPUT: # get_value(readout='concentration at 4 h', item= CC(C)Oc1nc(NC(=O)CSCC(=O)O)c(Cl)cc1Cl )
OUTPUT: 534 ng/g

* * *

# experiment-description: Tissue distribution in C57BL/6 male mice
# Assay type: in vivo, C57BL/6 mice
# applied-conditions: male, C57BL/6, mouse, white adipose tissue; mice, oral 10 mg/kg, 0.5 hrs; read-out: Adipose tissue concentration
readout: concentration at 0.5 h
Field: value (include unit after the number)

INPUT: # get_value(readout='concentration at 0.5 h', item= CC(C)Oc1nc(NC(=O)CSCC(=O)O)c(Cl)cc1Cl )
OUTPUT: 2110 ng/g

* * *

# experiment-description: Tissue distribution in C57BL/6 male mice
# Type: in vivo, C57BL/6 mice
# applied-conditions: male, C57BL/6, mouse; Adipose tissue, mice, oral 10 mg/kg; read-out: Tissue/Plasma ratio (Kp)
readout: Kp
Could you keep your reply to the number by itself?

INPUT: # get_value(readout='Kp', item= CC(C)Oc1nc(NC(=O)CSCC(=O)O)c(Cl)cc1Cl [PD152] )
OUTPUT: 1.3

* * *

# experiment-description: Tissue distribution in C57BL/6 male mice
# Type: in vivo, C57BL/6 mice
# applied-conditions: male, C57BL/6, mouse, plasma; mice, oral 10 mg/kg, 4.0 hrs; read-out: Plasma concentration
readout: concentration at 4 h
Field: value (include unit after the number)

INPUT: # get_value(readout='concentration at 4 h', item= CC(C)Oc1nc(NC(=O)CSCC(=O)O)c(Cl)cc1Cl [PD152] )
OUTPUT: 210 ng/mL

* * *

# experiment-description: Single dose IV and PO PK study in Han Wistar rats
# Assay type: in vivo
# applied-conditions: rat, plasma, intravenous 1 mg/kg
readout: half-life

INPUT: # get_value(readout='half-life', item= CC(C)Oc1nc(NC(=O)CSCC(=O)O)c(Cl)cc1Cl )
OUTPUT: ~43.8 min

Data origin, for the record: patent US20250325529A1
